Cited source: PubChem BioAssay

molecular target: NADPH oxidase 4 (Homo sapiens) (UniProt Q9NPH5); test: NOX4-dependent H2O2 signal modulators, primary screen, NOX inhibitor project, cell-based, HEK293-NOX4, tetracycline-induced, Amplex Red fluorescence (AID 1160); conditions: 45 min, higher = more signal, called active from +8 up or from −8 down
Sequence (Q9NPH5 whole entry, looked up): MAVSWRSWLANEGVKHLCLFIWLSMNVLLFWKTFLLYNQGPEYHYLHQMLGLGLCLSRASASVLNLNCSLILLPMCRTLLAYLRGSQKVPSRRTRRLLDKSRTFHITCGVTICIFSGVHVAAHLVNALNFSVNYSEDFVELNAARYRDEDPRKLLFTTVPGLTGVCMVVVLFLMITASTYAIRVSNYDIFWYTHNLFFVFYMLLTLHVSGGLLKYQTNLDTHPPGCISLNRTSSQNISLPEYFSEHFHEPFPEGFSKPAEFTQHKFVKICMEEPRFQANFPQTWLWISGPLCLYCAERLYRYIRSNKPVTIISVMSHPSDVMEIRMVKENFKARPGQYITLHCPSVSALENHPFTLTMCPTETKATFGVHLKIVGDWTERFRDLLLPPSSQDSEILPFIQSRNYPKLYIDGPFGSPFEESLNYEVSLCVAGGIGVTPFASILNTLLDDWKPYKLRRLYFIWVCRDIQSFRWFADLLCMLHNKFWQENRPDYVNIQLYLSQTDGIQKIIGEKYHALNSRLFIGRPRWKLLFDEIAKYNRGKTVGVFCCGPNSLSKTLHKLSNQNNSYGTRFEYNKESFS
Labels assigned by z-score range: b0 = under -0.8, b1 = from -0.8 up to 0.3, b2 = 0.3 and over

Some solved entries appear below for comparison.
* C=CC[C@@]1(C(=O)N(C)C)N=C(c2ccc(OCCCO)cc2)O[C@@H]1c1ccccc1N=[N+]=[N-] | b2
* C=C(COC)/C(=C/C[C@H](OC(=O)c1ccncc1)c1ccc(OCCO)cc1)c1cnc2ccccc2c1 | b1
* CCC(CC)C(O)C1C=CC2C(=O)N(C)C(=O)C2N1Nc1ccccc1 (stereo not drawn) | b0

Could you place CC(C)(C)OC(=O)CC[C@@]1(C(=O)NCC(O)CO)N=C(c2ccc(OCCCO)cc2)O[C@@H]1c1ccccc1N=[N+]=[N-] (stereo partly drawn) in its proper category? Many thanks.
b2

GET /class?item= COc1cc2c(cc1OC)CN(C(=O)[C@@H]1[C@H]3C(=O)O[C@H](c4ccccc4)[C@H](c4ccccc4)N3[C@H](c3ccc(O)cc3)[C@@]13C(=O)Nc1ccc(C#CC4(O)CCCCCC4)cc13)CC2
b2

Could you tell me which band CC(C)C[C@H]1NC(=O)[C@@]23C(=O)N[C@@H](Cc4ccccc4)C2[C@H](C)[C@@]2(C)O[C@H]2C3/C=C/C/C=C\CNC(=O)[C@H](Cc2ccccc2)NC1=O (stereo partly drawn) belongs to?
b0

Lab note: sort C=C(COC)/C(=C/C[C@@H](OC(C)=O)c1ccc(OCCO)cc1)c1cc(C(=O)OC)ccc1OC into the matching z-score band.
b1

Hello team, could you let me know which band the following molecule falls into: Cc1ccc(S[C@]2(C(=O)NCC(C)C)CC(=O)N(Cc3cc(C(F)(F)F)cc(C(F)(F)F)c3)[C@@H]2c2ccc(CO)cc2I)cc1
b0

Assign a bin to COc1cc2c(cc1O)C=[N+](Cc1cccc(OC(F)(F)F)c1)CC2
b0

Lab log: C=CCOC(=O)[C@H]1[C@@H]2C(=O)O[C@@H](c3ccccc3)[C@@H](c3ccccc3)N2[C@@H](c2ccc(OCCOC(=O)[C@@H]3C[C@@H]4C(=O)N[C@@H](CCCCN(C)C)C(=O)N4[C@@H]3c3ccc(O)cc3)cc2)[C@]12C(=O)Nc1ccc(I)cc12 — assign z-score category
b2

Lab note: which band did CCCCC(=C=CC[C@@H](O)c1ccccc1OCCO)CCO land in?
b1

Exam item: assign Cc1ccc(C(C)CC(O)C2C=CC3C(=O)N(c4ccccc4)C(=O)C3N2Nc2ccc([N+](=O)[O-])cc2)o1 (stereo not drawn) to the correct category.
b1

Which bin, given its z-score, does CN1C(=O)C2C=CC(C(O)C3CC=CCC3)N(NC(=O)OC(C)(C)C)C2C1=O (stereo not drawn) occupy?
b0

Entry COc1ccc(CCN2C(=O)[C@@]3(Cc4ccccc42)c2ccccc2C(=O)N(Cc2ccccc2C(F)(F)F)[C@H]3c2ccc(CO)cc2)cc1 belongs to which category?
b0

Into which category would you place C=C(/C(=C/C[C@@H](OC(C)=O)c1ccc(OCCO)cc1)c1cnc2ccccc2c1)C(C)C ?
b0

Just checking, what class would you give CC(C)(C)OC(=O)CC[C@]1(C(=O)O)N=C(c2ccc(OCCCO)cc2)O[C@H]1c1ccccc1N=[N+]=[N-] here?
b2

Dear colleague, I would appreciate it if you could identify the bin for CS(=O)(=O)CCOC(=O)C1=CC(CCCO)=CC(c2ccc(CN3CCCC3)cc2)N(Cc2cc3c(cc2Br)OCO3)C=C1C(=O)OCCS(C)(=O)=O (stereo not drawn) and reply at your convenience.
b2

Which band does CC(C)(C)OC(=O)CC[C@]1(C(=O)NCC(O)CO)COC(c2ccc(OCCCO)cc2)=N1 (stereo partly drawn) fall in?
b1

Kindly state the category for this molecule: COC(=O)[C@@]1(Cc2ccc(OC)cc2)[C@H]2c3cc(C(=O)N(C)C)n(Cc4cccc5ccccc45)c3C[C@H]2CN1C(=O)c1ccccc1
b0

Category lookup for the molecule COC(=O)C(CC#Cc1ccc2c(c1)[C@]1(C(=O)N2)[C@H](C(=O)O)[C@H]2C(=O)O[C@H](c3ccccc3)[C@H](c3ccccc3)N2[C@@H]1c1ccc(O)cc1)C(=O)OC
b1

Place this molecule in its band: COc1ccc([Si](C)(C)[C@H]2[C@H](CC(=O)N3CCC[C@H]3CO)O[C@@]3(C(=O)N(Cc4cccc(N5C(=O)c6cccc7cccc5c67)c4)c4ccccc43)[C@@H]2C)cc1
b1

For the record C=C(CCCC)/C(=C/C[C@@H](OC(C)=O)c1ccccc1OCCO)c1cnc2ccccc2c1 , report the class its z-score corresponds to.
b0
